measurement-target: UniProt O75762
assay: hTRPA1 CHO Ca2+ FLIPR Tetra assay, block of cinnamaldehyde induced calcium influx
Type: cell-based
recorded-conditions: read-out: hTRPA1 IC50 (90 min); CHO cells expressing TRPA1; compounds incubated 90 minutes at room temperature before cinnamaldehyde agonist; Hill coefficient fixed to 1.5
Overview of reported pIC50 across a group of molecules:
The scale used: pIC50 is minus the common logarithm of the concentration in molar units.

Examples with their reported pIC50 follow.
| molecule | pIC50 |
| --- | --- |
| Cn1cnc2ncn(Cc3nc([C@H]4[C@@H]5CN(c6ccc7sncc7c6)C[C@@H]54)no3)c(=O)c21 [Example Compound 237] | 8.68 |
| O=c1c2c(Cl)ccnc2ncn1Cc1nc([C@H]2C[C@](F)(c3ccc(Cl)cc3)C2)no1 [Example Compound 121] | 7.66 |
| Cn1nnc2ncn(Cc3nc([C@@H]4[C@H]5C=C(c6ccccc6)C[C@H]54)no3)c(=O)c21 [Example Compound 109] | 8.39 |
| Nc1ccc2c(=O)n(Cc3nc([C@H]4[C@@H]5CN(c6cccc(F)c6)C[C@@H]54)no3)cnc2n1 [Example Compound 261] | 8.37 |

Q: Using the record for Cn1cnc2ncn(Cc3nc([C@H]4[C@@H]5CN(c6cncc(F)c6)C[C@@H]54)no3)c(=O)c21 [Example Compound 144] , report its pIC50.
A: 7.05

Q: Now the same for Cn1cnc2ncn(Cc3nc([C@H]4[C@@H]5CN(c6cc(F)cc(F)c6)C[C@@H]54)no3)c(=O)c21 [Example Compound 92]
A: 8.51

Q: Now the same for Cn1cnc2ncn(Cc3nc([C@@H]4CC[C@@H](c5ccc(F)cc5)C4)no3)c(=O)c21 [Example Compound 172]
A: 7.74

Q: Now the same for Cn1nnc2ncn(Cc3nc([C@H]4[C@@H]5C=C(c6ccccc6)C[C@@H]54)no3)c(=O)c21 [Example Compound 108]
A: 8.51

Q: Now the same for Cc1cc(C#N)nc2ncn(Cc3nc([C@H]4[C@@H]5CN(c6cc(Cl)ccn6)C[C@@H]54)no3)c(=O)c12 [Example Compound 107]
A: 8.04

Q: Now the same for Cc1cnn2ncn(Cc3nc([C@H]4C[C@](F)(c5cccc(Cl)c5)C4)no3)c(=O)c12 [Example Compound 253]
A: 7.51

Q: Now the same for Cn1nnc2ncn(Cc3nc([C@H]4[C@@H]5CN(c6cc(Cl)ccn6)C[C@@H]54)no3)c(=O)c21 [Example Compound 130]
A: 7.36

Q: Now the same for Cn1c(Cl)nc2ncn(Cc3nc([C@@H]4[C@H]5C=C(c6ccccc6)C[C@H]54)no3)c(=O)c21 [Example Compound 263]
A: 8.19

Q: Now the same for Cn1cnc2ncn(Cc3nc([C@H]4[C@@H]5CN(c6cccc(F)c6F)C[C@@H]54)no3)c(=O)c21 [Example Compound 100]
A: 8.60

* * *

measurement-target: human TRPA1 channel (Homo sapiens (Human))
Sequence (O75762 whole entry): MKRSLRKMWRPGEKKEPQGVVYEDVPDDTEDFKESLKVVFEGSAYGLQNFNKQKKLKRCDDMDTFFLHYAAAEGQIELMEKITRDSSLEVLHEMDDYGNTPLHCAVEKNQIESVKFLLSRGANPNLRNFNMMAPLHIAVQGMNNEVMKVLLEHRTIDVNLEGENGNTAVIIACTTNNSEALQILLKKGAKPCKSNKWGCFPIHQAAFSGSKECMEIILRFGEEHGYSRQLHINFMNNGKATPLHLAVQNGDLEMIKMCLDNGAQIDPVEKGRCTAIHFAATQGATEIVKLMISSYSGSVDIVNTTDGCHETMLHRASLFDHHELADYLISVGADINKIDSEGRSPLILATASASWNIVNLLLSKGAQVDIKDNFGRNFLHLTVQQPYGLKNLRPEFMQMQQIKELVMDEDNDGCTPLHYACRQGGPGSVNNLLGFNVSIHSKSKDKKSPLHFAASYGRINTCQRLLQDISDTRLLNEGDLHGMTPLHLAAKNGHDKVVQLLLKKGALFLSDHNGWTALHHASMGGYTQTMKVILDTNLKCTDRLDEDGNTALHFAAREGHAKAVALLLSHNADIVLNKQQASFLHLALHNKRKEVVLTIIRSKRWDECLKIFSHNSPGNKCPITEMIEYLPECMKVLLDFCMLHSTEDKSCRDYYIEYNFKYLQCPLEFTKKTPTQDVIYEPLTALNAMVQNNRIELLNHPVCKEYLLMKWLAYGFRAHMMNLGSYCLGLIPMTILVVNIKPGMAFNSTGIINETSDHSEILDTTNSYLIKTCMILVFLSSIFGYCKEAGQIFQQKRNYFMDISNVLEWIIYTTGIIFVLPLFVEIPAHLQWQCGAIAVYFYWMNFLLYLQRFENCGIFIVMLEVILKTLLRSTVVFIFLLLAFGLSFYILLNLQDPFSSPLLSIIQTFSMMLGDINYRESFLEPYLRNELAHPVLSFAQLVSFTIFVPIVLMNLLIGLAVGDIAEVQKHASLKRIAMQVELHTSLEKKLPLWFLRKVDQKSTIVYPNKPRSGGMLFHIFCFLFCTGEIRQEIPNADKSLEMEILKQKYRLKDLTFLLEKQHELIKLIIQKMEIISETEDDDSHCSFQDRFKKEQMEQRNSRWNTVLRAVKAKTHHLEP
assay: hTRPA1 CHO Ca2+ FLIPR Tetra assay, block of cinnamaldehyde induced calcium influx
Assay type: cell-based
recorded-conditions: read-out: hTRPA1 IC50 (10 min); CHO cells expressing TRPA1; compounds incubated 10 minutes at room temperature before cinnamaldehyde agonist; Hill coefficient fixed to 1.5
quantity: IC50 (nM)
The response must be a number in nM with no trailing unit.

Examples with their reported IC50 follow.
| chem-smiles | IC50 / nM |
| --- | --- |
| Cn1cnc2ncn(Cc3nc([C@H]4C[C@H](Oc5ccc(Cl)cc5)C4)no3)c(=O)c21 | 24.9 |
| Cn1cnc2ncn(Cc3nc([C@H]4[C@@H]5CN(c6ccc7ncccc7c6)C[C@@H]54)no3)c(=O)c21 | 166 |
| Cc1cc(C#N)nc2ncn(Cc3nc([C@H]4[C@@H]5CN(c6cc(Cl)ccn6)C[C@@H]54)no3)c(=O)c12 | 49 |
| Cn1cnc2ncn(Cc3nc([C@H]4[C@@H]5CN(c6cccc(C(F)(F)F)c6)C[C@@H]54)no3)c(=O)c21 | 52.7 |
| Cn1cnc2ncn(Cc3nc([C@H]4[C@@H]5CN(c6ccc7sncc7c6)C[C@@H]54)no3)c(=O)c21 | 18.2 |
| COCCNc1nc2ncn(Cc3nc([C@@H]4[C@H]5C=C(c6ccccc6)C[C@H]54)no3)c(=O)c2n1C | 42.6 |

Q: Using the record for Cc1ccnc2ncn(Cc3nc([C@@H]4[C@H]5C=C(c6ccccc6)C[C@H]54)no3)c(=O)c12 , report its IC50.
A: 14

// data source = patent US10711004B2
